quantityName: IC50

Tell me its IC50 on WT full length PAICS (Homo sapiens (Human)): Nc1nc(C(=O)Nc2cc(N3CCN(C(=O)OC4CCNC4)CC3)ccc2Cl)co1 (stereo not shown) 25 to 100 nM

Tell me its IC50 on WT full length PAICS (Homo sapiens (Human)): CCN(CC)CCCS(=O)(=O)N1CCN(c2ccc(Br)c(NC(=O)c3coc(N)n3)c2)CC1 < 10 nM

Tell me its IC50 on WT full length PAICS (Homo sapiens (Human)): Nc1nc(C(=O)Nc2cc(N3CCN(S(=O)(=O)CCNC4CC4)CC3)ccc2Cl)co1 25 to 100 nM

Tell me its IC50 on WT full length PAICS (Homo sapiens (Human)): Nc1nc(C(=O)Nc2cc(N3CCN(C(=O)OC4CNC4)CC3)ccc2Cl)co1 > 100 nM

Tell me its IC50 on WT full length PAICS (Homo sapiens (Human)): CN1CCC(NCCS(=O)(=O)N2CCN(c3ccc(Br)c(NC(=O)c4coc(N)n4)c3)CC2)CC1 < 10 nM

Tell me its IC50 on WT full length PAICS (Homo sapiens (Human)): Nc1nc(C(=O)Nc2cc(N3CCN(S(=O)(=O)C4CCNCC4)CC3)ccc2Br)co1 < 10 nM

Tell me its IC50 on WT full length PAICS (Homo sapiens (Human)): NCCS(=O)(=O)N1CCN(c2ccc(Cl)c(NC(=O)c3coc(N)n3)c2)CC1 25 to 100 nM

Tell me its IC50 on WT full length PAICS (Homo sapiens (Human)): CN1CC(CN2CCN(c3ccc(Br)c(NC(=O)c4coc(N)n4)c3)CC2=O)C1 10 to 25 nM

Tell me its IC50 on WT full length PAICS (Homo sapiens (Human)): CNCCCS(=O)(=O)N1CCN(c2ccc(Br)c(NC(=O)c3coc(N)n3)c2)CC1 < 10 nM

Tell me its IC50 on WT full length PAICS (Homo sapiens (Human)): CNCCS(=O)(=O)N1CCN(c2ccc(Br)c(NC(=O)c3coc(N)n3)c2)CC1 < 10 nM

Tell me its IC50 on WT full length PAICS (Homo sapiens (Human)): Nc1nc(C(=O)Nc2cc(N3CCN(S(=O)(=O)CCCN4CCCC4)CC3)ccc2Br)co1 < 10 nM

Tell me its IC50 on WT full length PAICS (Homo sapiens (Human)): CC(C)NCCCS(=O)(=O)N1CCN(c2ccc(Cl)c(NC(=O)c3coc(N)n3)c2)CC1 < 10 nM

Tell me its IC50 on WT full length PAICS (Homo sapiens (Human)): CN1CCC(S(=O)(=O)N2CCN(c3ccc(Br)c(NC(=O)c4coc(N)n4)c3)CC2)CC1 < 10 nM

Tell me its IC50 on WT full length PAICS (Homo sapiens (Human)): CN(C)CCS(=O)(=O)N1CCN(c2ccc(Br)c(NC(=O)c3coc(N)n3)c2)CC1 < 10 nM

Tell me its IC50 on WT full length PAICS (Homo sapiens (Human)): CNCCCS(=O)(=O)N1CCN(c2ccc(Cl)c(NC(=O)c3coc(N)n3)c2)CC1 10 to 25 nM

Tell me its IC50 on WT full length PAICS (Homo sapiens (Human)): CN(C)CCCS(=O)(=O)N1CCN(c2ccc(Br)c(NC(=O)c3coc(N)n3)c2)CC1 < 10 nM

Tell me its IC50 on WT full length PAICS (Homo sapiens (Human)): CN(C)CCN1CCN(c2ccc(Br)c(NC(=O)c3coc(N)n3)c2)CC1=O 10 to 25 nM

Tell me its IC50 on WT full length PAICS (Homo sapiens (Human)): CNCCOC(=O)N1CCN(c2ccc(Cl)c(NC(=O)c3coc(N)n3)c2)CC1 25 to 100 nM

Tell me its IC50 on WT full length PAICS (Homo sapiens (Human)): CC(C)NCCS(=O)(=O)N1CCN(c2ccc(Br)c(NC(=O)c3coc(N)n3)c2)CC1 < 10 nM

###

pIC50: −log10 of the molar value.
Provide the recorded pIC50 for the entries that follow.

Tell me its pIC50 on UniProtKB P22234: Nc1nc(C(=O)Nc2cc(N3CCN(C(=O)OCCNC4CC4)CC3)ccc2Cl)co1 7.00 to 7.60

Tell me its pIC50 on UniProtKB P22234: CC(C)NCCS(=O)(=O)N1CCN(c2ccc(Cl)c(NC(=O)c3coc(N)n3)c2)CC1 7.60 to 8.00

Tell me its pIC50 on UniProtKB P22234: CN(C)CCNCCS(=O)(=O)N1CCN(c2ccc(Cl)c(NC(=O)c3coc(N)n3)c2)CC1 7.60 to 8.00

Tell me its pIC50 on UniProtKB P22234: Nc1nc(C(=O)Nc2cc(N3CCN(C(=O)OCCNC4CC4)CC3)ccc2Br)co1 7.60 to 8.00
